Numbers sourced from patent US11266147B2.

test: LogP by HPLC on reversed phase columns (EEC directive 79/831 Annex V.A8); type: physicochemical; details: method [a]: LC-UV, acidic range, 0.1% formic acid in water and acetonitrile, linear gradient 10% to 95% acetonitrile
Entries and their LogP values follow.

molecule="Fc1ccc(Nc2ncc(-c3noc(C(F)(F)F)n3)cn2)c(F)c1 [Compound I-42]" measured_property=LogP observed_measurement=3.70^[a]
molecule="FC(F)(Cl)c1nc(-c2cnc(Nc3cccc(Cl)c3)nc2)no1 [Compound I-79]" measured_property=LogP observed_measurement=4.56^[a]
molecule="COc1cccc(Nc2ncc(-c3noc(C(F)(F)F)n3)cn2)c1 [Compound I-45]" measured_property=LogP observed_measurement=3.76^[a]
molecule="N#CCc1ccc(Nc2ncc(-c3noc(C(F)(F)Cl)n3)cn2)cc1 [Compound I-84]" measured_property=LogP observed_measurement=3.46^[a]
molecule="FC(F)(F)c1nc(-c2ccc(Nc3ccc(Cl)cc3)cc2)no1 [Compound I-38]" measured_property=LogP observed_measurement=5.00^[a]

stdin: Please supply the value of reported LogP for the item FC(F)(F)c1nc(-c2cnc(NC3CCCC3)nc2)no1 [Compound I-08]
stdout: 3.83^[a]

stdin: Please supply the value of reported LogP for the item FC(F)(F)c1nc(-c2cnc(Nc3ccon3)nc2)no1 [Compound I-57]
stdout: 2.50^[a]
